# target system: HA of virus A/Hiroshima/52/2005 (H3N2) (influenza A virus (H3N2))
# assay summary: cell-based or functional assay
parameter: Neutralization titer SK50 (µg/mL)
Answers are plain numbers, in µg/mL.

The following binders have reported results that may help.
{"columns": ["binder", "Neutralization titer SK50 [µg/mL]"],
 "data": [
  ["CR8017 (antibody, V domains shown) VH: EVQLVETGGDLVQPGGSLRLSCSASEFSFSSYWMSWVRQAPGKGLEWVANMKQDGSEKYYVDSVKGRFTISRDNAKNSLYLQMNSLRGEDTAVYYCARGSCDDSWTGCHDAFDI VL: SSELTQDPAVSVALGQTVRITCQGDSLRSYYASWYQQKPGQAPVLVIYAKTNRPSGIPDRFSGSTSGNTASLTITGAQAEDEADYYCNSRDSSGNHVV", 13.6],
  ["CR8049 (antibody, V domains shown) VH: QVTLKESGPVLVKPKETLTLTCTVSGFSLSNTRMGVSWIRQPPGKALEWLAHIFSNDETSYRTSLKRRLTISQDISKSQVVLSMTNVDPADTATYFCARIGSGYESSAYSTWLDP VL: QVQLQQWGAGLLKPSETLSLTCAVYGGSFTDHYWSWIRQSPGKGLEWIGEVVHSGDTNYTPSLRNRVSISVDSSKNQFSLRLGSVTAADTAVYYCARGRNVAVVGAIQRHYDY", 3.54],
  ["CR8018 (antibody, V domains shown) VH: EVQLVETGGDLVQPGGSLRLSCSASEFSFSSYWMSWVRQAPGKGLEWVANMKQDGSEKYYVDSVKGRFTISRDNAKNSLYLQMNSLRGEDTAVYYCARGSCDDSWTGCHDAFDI VL: QSALTQPASVSGSPGQSITISCTGTSSDVGGYNYVSWYQQHPGKAPKLMIYEVSHRPSGVSNRFSGSKSGSTASLTISGLQSEDEADYYCSSYTGEGPLGV", 8.45]
]}

Query block: Form field: reported Neutralization titer SK50 of CR8055 (antibody, V domains shown) VH: EIVLTQSPDFQSVAPKEKVTITCRASRSIGSDLHWFQQRPDQSPKLLIKFASQSMSGVPSRFSGSGSGRDFTLTISSLEAEDAATYYCHQSSSLPLT VL: EVQLVESGGGLVQPGGSLRLSCAASGFTDSVIFMSWVRQAPGKGLECVSIIYIDDSTYYADSVKGRFTISRHNSMGTVFLEMNSLRPDDTAVYYCATESGDFGDQTGPYHYYAMDV
Result block: 1.15
